B1: RPAIN (parent)
chain: ISEYEKSLQFDEKCLSIMLAEWEA

variants of: B1; assay: protein stability index of a GFP-peptide fusion (GPS, HEK-293T) (PSI 1-6); higher = more stable; settings: c terminus: a fixed tail appended;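 also: lentivirally expressed fusions sorted by FACS into six bins by GFP to DsRed ratio, PSI derived from sequencing read proportions per bin multiplied by bin number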
Known protein stability index of a selection of variants
Output: the number by itself.

sequence-entry | protein stability index
ISEYEKSLQFDEKCLSIMLAETEA [W22T] | 2.03
ISEYEKSLIFDEKCLSIMLAEWEA [Q9I] | 1.96
ISEYEKSLQFDFKCLSIMLAEWEA [E12F] | 1.99

We now examine a further variant.
Task: Look up protein stability index for this variant: ISEYEHSLQFDEKCLSIMLAEWEA [K6H]
Result: 1.97
